Give EC50 for every item shown.
measured_on: GST-LXRβ ligand-binding domain (Homo sapiens, UniProt P55055)
Construct: amino acids 156-461; NP009052; made in house; host or cells: E. coli
Sequence (P55055 156-460 limits assumed): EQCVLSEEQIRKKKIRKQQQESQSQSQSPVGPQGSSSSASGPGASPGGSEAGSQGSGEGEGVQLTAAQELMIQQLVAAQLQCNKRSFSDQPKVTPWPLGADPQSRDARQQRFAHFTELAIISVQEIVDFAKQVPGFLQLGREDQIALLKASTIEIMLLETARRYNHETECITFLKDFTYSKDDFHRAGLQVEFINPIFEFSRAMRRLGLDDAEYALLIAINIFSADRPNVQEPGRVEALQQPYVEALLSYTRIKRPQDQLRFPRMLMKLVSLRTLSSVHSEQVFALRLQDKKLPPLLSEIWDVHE
assay_remarks: TR-FRETβ activity assay (NCoA3 coactivator peptide recruitment)
Type: biochemical
test_settings: 1 μM 24(S)-25-epoxycholesterol prestimulation

State its EC50: N#Cc1sccc1-c1c(-c2cccc(OCCC(=O)O)n2)n(S(=O)(=O)c2ccc(Cl)cc2)c2ccccc12
1 to 10 µM

State its EC50: COc1ccc(S(=O)(=O)n2c(-c3ccccc3)c(-c3cc(C)sc3C#N)c3ccccc32)cc1
1 to 10 µM

State its EC50: [2H]c1c([2H])c(S(=O)(=O)n2c(-c3cccc(-c4ccc(C(=O)O)cc4Cl)c3)c(-c3ccsc3C#N)c3cc(F)ccc32)c([2H])c([2H])c1C([2H])([2H])[2H]
< 0.1 µM
